test: Solubility in water at 20° C.; format: physicochemical
RECORDED_ENDPOINT: solubility in water

// recorded solubility in water for CN1CCN(C)CCN(C)CC1.CN1CCN(C)CCN(C)CC1.F[P-](F)(F)(F)(F)F.F[P-](F)(F)(F)(F)F.O.[Mn+4].[Mn+4].[O-2].[O-2].[O-2] [MnTACN-PF6, [Mn^IV2(μ-O)3(Me3-TACN)2](PF6)2*H2O, reference compound] : 10.8 mg/mL
